# Measured Target: SEVI fibrils (Homo sapiens)
# Construct: PAP248-286 peptide was synthesized by New England Peptide; purchased New England Peptide (Gardner, Mass.); host or cells: chemical synthesis
# Test: Example 4: centrifugation fluorescence binding assay of 1-5 to SEVI fibrils
# Details: Table 3, 5% DMSO/PBS

Compound	Kd (nM)
CCNC(=O)CCOCCOCCOCCOCCNC(=O)CCNc1ccc(-c2nc3ccc(C)cc3s2)cc1	236
CCNC(=O)C(CCCCNC(=O)CCOCCOCCOCCOCCNC(=O)CCNc1ccc(-c2nc3ccc(C)cc3s2)cc1)NC(=O)C(CCCCNC(=O)CCOCCOCCOCCOCCNC(=O)CCNc1ccc(-c2nc3ccc(C)cc3s2)cc1)NC(=O)C(CCCCNC(=O)CCOCCOCCOCCOCCNC(=O)CCNc1ccc(-c2nc3ccc(C)cc3s2)cc1)NC(=O)CCOCCOCCOCCOCCNC(=O)CCNc1ccc(-c2nc3ccc(C)cc3s2)cc1 (stereo not shown)	59
Cc1ccc2nc(-c3ccc(NCCC(=O)NCCOCCOCCOCCOCCC(=O)NCCNC(=O)CCOCCOCCOCCOCCNC(=O)CCNc4ccc(-c5nc6ccc(C)cc6s5)cc4)cc3)sc2c1	69
Cc1ccc2nc(-c3ccc(NCCC(=O)NCCOCCOCCOCCOCCC(=O)NCCN(CCNC(=O)CCOCCOCCOCCOCCNC(=O)CCNc4ccc(-c5nc6ccc(C)cc6s5)cc4)CCNC(=O)CCOCCOCCOCCOCCNC(=O)CCNc4ccc(-c5nc6ccc(C)cc6s5)cc4)cc3)sc2c1	40

====

# Measured Target: SEVI fibrils (Homo sapiens, UniProt P15309)
# Construct: PAP248-286 peptide was synthesized by New England Peptide; purchased New England Peptide (Gardner, Mass.); host or cells: chemical synthesis
# Sequence (P15309 248-286 limits assumed): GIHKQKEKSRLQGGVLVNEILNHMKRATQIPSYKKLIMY
# Test: Example 3: fluorescence assay, Kd of monomer and oligomers 1-5 to SEVI fibrils
# Format: binding
# Details: Example 3, Table 2, estimated

Compound	Kd
Cc1ccc2nc(-c3ccc(NCCC(=O)NCCOCCOCCOCCOCCC(=O)NCCNC(=O)CCOCCOCCOCCOCCNC(=O)CCNc4ccc(-c5nc6ccc(C)cc6s5)cc4)cc3)sc2c1	75 nM
CCNC(=O)C(CCCCNC(=O)CCOCCOCCOCCOCCNC(=O)CCNc1ccc(-c2nc3ccc(C)cc3s2)cc1)NC(=O)C(CCCCNC(=O)CCOCCOCCOCCOCCNC(=O)CCNc1ccc(-c2nc3ccc(C)cc3s2)cc1)NC(=O)C(CCCCNC(=O)CCOCCOCCOCCOCCNC(=O)CCNc1ccc(-c2nc3ccc(C)cc3s2)cc1)NC(=O)CCOCCOCCOCCOCCNC(=O)CCNc1ccc(-c2nc3ccc(C)cc3s2)cc1 (stereo not shown)	56 nM
Cc1ccc2nc(-c3ccc(NCCC(=O)NCCOCCOCCOCCOCCC(=O)NCCN(CCNC(=O)CCOCCOCCOCCOCCNC(=O)CCNc4ccc(-c5nc6ccc(C)cc6s5)cc4)CCNC(=O)CCOCCOCCOCCOCCNC(=O)CCNc4ccc(-c5nc6ccc(C)cc6s5)cc4)cc3)sc2c1	40 nM
CCNC(=O)CCOCCOCCOCCOCCNC(=O)CCNc1ccc(-c2nc3ccc(C)cc3s2)cc1	107 nM

====

# Measured Target: aggregated Alzheimer disease-related Aβ(1-42) peptides (Homo sapiens, UniProt P05067)
# Construct: aggregated Alzheimer disease-related Aβ(1-42) peptides
# Sequence (P05067 672-713 limits assumed): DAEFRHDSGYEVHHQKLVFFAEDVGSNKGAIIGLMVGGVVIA
# Test: Fluorescence binding assay of BTA-EG6 to aggregated Aβ(1-42) peptides
# Details: same fluorescence binding assay
pKd: −log10 of the molar value.
Reported Metric: pKd

Smiles String	Value Measured
Cc1ccc2nc(-c3ccc(NCCOCCOCCOCCOCCOCCO)cc3)sc2c1	6.95

====

# Measured Target: Aβ(1-42) fibrils (Homo sapiens, UniProt P05067)
# Construct: Aβ(1-42) peptide was purchased from GL Biochem (Shanghai, China) Ltd; purchased GL Biochem (Shanghai, China) Ltd; host or cells: synthetic peptide; fibrils grown in PBS at 37 °C for 24 h
# Sequence (P05067 672-713 limits assumed): as above
# Test: Example 4: centrifugation fluorescence binding assay of 1-5 to Aβ(1-42) fibrils

Smiles String	Unit Symbol	Kd
Cc1ccc2nc(-c3ccc(NCCC(=O)NCCOCCOCCOCCOCCC(=O)NCCNC(=O)CCOCCOCCOCCOCCNC(=O)CCNc4ccc(-c5nc6ccc(C)cc6s5)cc4)cc3)sc2c1	nM	29
